Target: Epidermal growth factor receptor (Homo sapiens)
Sequence (P00533 whole entry): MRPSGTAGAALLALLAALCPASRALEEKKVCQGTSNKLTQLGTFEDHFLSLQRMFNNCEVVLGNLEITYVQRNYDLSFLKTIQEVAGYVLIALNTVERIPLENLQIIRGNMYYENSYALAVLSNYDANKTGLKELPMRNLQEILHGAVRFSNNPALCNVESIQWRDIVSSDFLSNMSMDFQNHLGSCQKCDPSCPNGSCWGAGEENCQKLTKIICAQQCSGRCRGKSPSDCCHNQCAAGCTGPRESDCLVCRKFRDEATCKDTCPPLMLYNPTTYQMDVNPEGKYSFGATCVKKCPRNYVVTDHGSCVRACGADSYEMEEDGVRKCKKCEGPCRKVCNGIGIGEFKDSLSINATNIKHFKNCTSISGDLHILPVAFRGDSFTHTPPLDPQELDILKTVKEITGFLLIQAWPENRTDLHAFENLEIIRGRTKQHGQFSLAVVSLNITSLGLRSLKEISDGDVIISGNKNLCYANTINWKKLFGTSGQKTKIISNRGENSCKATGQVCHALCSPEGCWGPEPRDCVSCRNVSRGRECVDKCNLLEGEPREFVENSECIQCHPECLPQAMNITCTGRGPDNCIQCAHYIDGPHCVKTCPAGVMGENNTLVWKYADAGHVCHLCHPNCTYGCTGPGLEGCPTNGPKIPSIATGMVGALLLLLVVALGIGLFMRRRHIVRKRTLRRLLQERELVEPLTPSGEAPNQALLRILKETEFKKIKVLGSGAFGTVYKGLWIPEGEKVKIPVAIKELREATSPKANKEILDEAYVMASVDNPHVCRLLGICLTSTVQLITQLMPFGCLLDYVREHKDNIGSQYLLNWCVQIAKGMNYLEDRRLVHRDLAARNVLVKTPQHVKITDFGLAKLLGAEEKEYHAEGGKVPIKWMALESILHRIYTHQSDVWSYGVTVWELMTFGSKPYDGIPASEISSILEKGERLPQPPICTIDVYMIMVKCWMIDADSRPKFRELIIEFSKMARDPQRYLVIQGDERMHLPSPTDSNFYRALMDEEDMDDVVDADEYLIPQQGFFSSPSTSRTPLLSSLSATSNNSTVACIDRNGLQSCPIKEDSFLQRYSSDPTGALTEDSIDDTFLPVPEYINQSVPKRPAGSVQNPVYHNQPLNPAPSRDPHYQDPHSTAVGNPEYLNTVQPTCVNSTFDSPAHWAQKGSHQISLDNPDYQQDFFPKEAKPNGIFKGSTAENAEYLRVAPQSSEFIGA
readout_name: pIC50
Worth noting: pIC50 values are minus log10 of concentrations stated in mol/L.

If you can, please state the reported pIC50 value of `COc1ccncc1-c1cc(C(=O)/N=c2\[nH]c3cc(C4CCN(C(C)=O)CC4)ccc3n2CC(C)(C)O)ccn1` .
6.66

// provenance: ChEMBL document CHEMBL5728826
